biological target: MAGI1_2, Q96QZ7; test: holdup assay; set-up: key: below the threshold = too weak to quantify, mostly under pKd 3.1 to 4; settings: plain residues with an end cap or a label only (N-terminal biotin on a linker: ado-ado)
Sequence (Q96QZ7 456-580): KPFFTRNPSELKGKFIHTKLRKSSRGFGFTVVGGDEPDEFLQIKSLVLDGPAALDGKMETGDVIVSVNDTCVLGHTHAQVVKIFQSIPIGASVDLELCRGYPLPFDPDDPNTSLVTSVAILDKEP
measurement.label: pKd

See these solved cases before continuing.
binder: THHRKIHTRV [ZNF599, Q96NL3]
pKd: 4.96

binder: PSVYSRSQYV [CLDN8, P56748]
pKd: below the threshold

binder: EPAKETTTNV [SLC2A3, P11169]
pKd: below the threshold

binder: FVFESRKEIL [TBPL1, P62380]
pKd: below the threshold

binder: QRYPGNQTTC [CCL24, O00175]
pKd: below the threshold

**Q:** Which value of pKd has been reported for TFSRRPKTRV [CD226, Q15762] in the records?
**A:** 4.75

**Q:** Which value of pKd has been reported for KEKASTETEC [TRPM1, Q7Z4N2] in the records?
**A:** below the threshold

**Q:** Which value of pKd has been reported for DYSNLRETDI [ADRA1D, P25100] in the records?
**A:** below the threshold

**Q:** Which value of pKd has been reported for TKDKVQETQI [LRRC4, Q9HBW1] in the records?
**A:** below the threshold

**Q:** Which value of pKd has been reported for HLSTRQGTCV [ATRNL1, Q5VV63] in the records?
**A:** 4.65

**Q:** Which value of pKd has been reported for ADEMICITTL [CACNA1D, Q01668] in the records?
**A:** below the threshold

**Q:** Which value of pKd has been reported for GQNMTVSVVI [PRLHR, P49683] in the records?
**A:** below the threshold

**Q:** Which value of pKd has been reported for DLLGGGSDSI [TNRC6B, Q9UPQ9] in the records?
**A:** below the threshold

**Q:** Which value of pKd has been reported for NTALVESEDL [PALLS, Q8WX93;Q8WX93-1] in the records?
**A:** below the threshold

**Q:** Which value of pKd has been reported for SRPHTNETSL [MCC, P23508] in the records?
**A:** 3.63

Cited source for all entries: paper PMC9482650
